tested on: P12-Ichikawa; assay: cell viability relative to DMSO control; higher = less cytotoxic; settings: HPLM + 10% dialyzed FBS; 48 h; 5.12 µM
This listing pairs molecules with measured cell viability.
Give the value, in units of %, as a plain number.

Sample records with cell viability:
CCCCCCCCCCCCCCCCCCCCCCO | 127
CC1(C)Cc2c(-c3ccccc3)c(-c3ccc(Cl)cc3)c(CC(=O)O)n2C1 | 105
COC[C@H]1OC(=O)C2=COC3=C2[C@@]1(C)\C4=C(C5CCC(=O)[C@@]5(C)C[C@H]4OC(C)=O)/C3=O (stereo partly specified) | 110
COc1cc2nc(N(C)CCCNC(=O)C3CCCO3)nc(N)c2cc1OC (stereo unspecified) | 88.3
N=C(CCSCc1csc(N=C(N)N)n1)N[S+](N)(=O)[O-] | 106

Measured cell viability, CC(C)C(C)/C=C/C(C)C1CCC2C3=CC=C4CC(O)CCC4(C)C3CCC21C (stereo unspecified) : 106

Measured cell viability, CC1CCC(C(=O)N(c2cc(C#CC(C)(C)C)sc2C(=O)O)C2CCC(O)CC2)CC1 (stereo unspecified) : 83.2

====

tested on: P12-Ichikawa; assay: cell viability relative to DMSO control; higher = less cytotoxic; settings: HPLM + 10% dialyzed FBS; 48 h; 0.00702 µM
Outcome Measure: cell viability (%)
Give the value, in units of %, as a plain number.

CC\1=C/C=C\C=[N]1[Pt](N)(Cl)Cl | 113

Please find the next compound below.
Measured cell viability, `CC[C@H](CC#N)OC(=O)N[C@@H](C)c1cccc(NC(=O)Nc2ccc(-c3cnco3)c(OC)c2)c1` : 120

====

This listing pairs molecules with measured cell viability.
tested on: P12-Ichikawa; assay: cell viability relative to DMSO control; higher = less cytotoxic; settings: RPMI 5 mM glucose + 10% FBS; 48 h; 1.71 µM
Give the value, in units of %, as a plain number.

Sample records with cell viability:
CC/C(=C(/c1ccc(O)cc1)c1ccc(OCCNC)cc1)c1ccccc1 | 107
Cc1c(CCOc2ccc(C(=O)O)cc2)c2cc(Cl)ccc2n1C(c1ccccc1)c1ccccc1 | 101
COc1ccc(CC2NCCc3cc(OC)c(OC)cc32)cc1OC (stereo not given) | 89.2
CC(C)[C@@H](N(CCCN)C(=O)C1=CC=C(C)C=C1)C/2=N/C3=CC(=CC=C3C(=O)N2CC4=CC=CC=C4)Cl | 8.68
CC(C)C(C)/C=C/C(C)C1CCC2C3=CC=C4CC(O)CCC4(C)C3CCC21C (stereo not given) | 97.6
CC(NC1=CC=CC=C1)C\2=C\C(=C/N3C(=O)\C=C(/N=C23)N4CCOCC4)C (stereo not given) | 113
C[C@@H](NC1=CC=CC=C1C(O)=O)C/2=C/C(=C\N3C(=O)/C=C(\N=C23)N4CCOCC4)C | 72.2
NC[C@H]1CC[C@H](C(=O)O)CC1 | 129

Measured cell viability, `CCCCCOC(=O)NC\1=N\C(=O)N(\C=C1F)[C@@H]2O[C@H](C)[C@@H](O)[C@H]2O` : 93.3

Measured cell viability, CN(C)CCOc1cc(-c2cn[nH]c2)ccc1NC(=O)C1COc2ccccc2O1 (stereo not given) : 113

Measured cell viability, `COC1=CC=CC=C1C2=CC=CC(=C2)C/3=C(O)/C4=CC(=C(Cl)C=C4NC3=O)C#N` : 106

====

This listing pairs molecules with measured cell viability.
system: SEM cells; experiment: cell viability relative to DMSO control; higher = less cytotoxic; settings: RPMI 5 mM glucose + 10% dialyzed FBS; 48 h; 0.569 µM

Measured cell viability, `CCCCCOC(=O)NC\1=N\C(=O)N(\C=C1F)[C@@H]2O[C@H](C)[C@@H](O)[C@H]2O` : 95.6%

====

This listing pairs molecules with measured cell viability.
test system: SEM cells; test: cell viability relative to DMSO control; higher = less cytotoxic; conditions: RPMI 5 mM glucose + 10% FBS; 48 h; 0.0632 µM
Give the value, in units of %, as a plain number.

COc1ccc(C[C@@H](C)[C@@H](C)Cc2ccc(OC)c(OC)c2)cc1OC | 106
COc1cnc(N[S+](=O)([O-])c2ccc(N)cc2)nc1 | 101

Record `OC1=CC=C(C=C1)\C2=C\OC3=C(C=CC(=C3)O)C2=O` ; system SEM cells; cell viability = 107

Record `Nc1ccccc1NC(=O)c1ccc(CNC(=O)OCc2cccnc2)cc1` ; system SEM cells; cell viability = 132

Record `CC(=O)O.Cc1c(-c2ccc(O)cc2)n(Cc2ccc(OCCN3CCCCCC3)cc2)c2ccc(O)cc12` ; system SEM cells; cell viability = 86.6

====

This listing pairs compounds with measured cell viability.
system: SEM cells; assay: cell viability relative to DMSO control; higher = less cytotoxic; settings: RPMI 5 mM glucose + 10% dialyzed FBS; 48 h; 5.12 µM
Give the value, in units of %, as a plain number.

Sample records with cell viability:
CO[C@H]1/C=C/O[C@@]2(C)Oc3c(C)c(O)c4c(O)c(c5c(nc6cc(C)ccn65)c4c3C2=O)NC(=O)/C(C)=C\C=C\[C@H](C)[C@H](O)[C@@H](C)[C@@H](O)[C@@H](C)[C@H](OC(C)=O)[C@@H]1C | 32
CCc1cc(Nc2nccc(-c3c(-c4ccc(OC)c(C(=O)Nc5c(F)cccc5F)c4)nc4ccccn34)n2)c(OC)cc1N1CCC(N2CCN([S+](C)(=O)[O-])CC2)CC1 | 89.1
COc1ccc(C[C@@H](C)[C@@H](C)Cc2ccc(OC)c(OC)c2)cc1OC | 18.3
C[C@]12CC[C@@H]3c4ccc(OC(=O)N(CCCl)CCCl)cc4CC[C@H]3[C@@H]1CC[C@@H]2OP(=O)([O-])[O-].[Na+].[Na+] | 67.5
CC(C)(C)C(=O)Oc1ccc2c(c1)nc(NC(=O)c1cccc([N+](=O)[O-])c1)n2CCCO | 107

Please find the next compound below.
Measured cell viability, COC1=C(N2CCNC(C)C2)C(=CC3=C1N(\C=C(C(O)=O)/C3=O)C4CC4)F (stereo unspecified) : 13.4

====

system: P12-Ichikawa; assay: cell viability relative to DMSO control; higher = less cytotoxic; conditions: RPMI 5 mM glucose + 10% dialyzed FBS; 48 h; 1.71 µM
This listing pairs compounds with measured cell viability.
Give the value, in units of %, as a plain number.

COc1cc2c(cc1OC)C1CC(=O)C(CC(C)C)CN1CC2 (stereo not drawn) | 125

Measured cell viability, `Cc1c(CN2CCN(C(=O)[C@H](C)O)CC2)sc2c(N3CCOCC3)nc(-c3cnc(N)nc3)nc12` : 54.5

Measured cell viability, CN1[C@@H]2CC[C@H]1CC(OC(=O)c1c[nH]c3ccccc13)C2 (stereo partly drawn) : 117

Measured cell viability, CC(C)NCC(O)COc1ccc(COCCOC(C)C)cc1 (stereo not drawn) : 104

====

tested on: P12-Ichikawa; test: AUC of viability dose-response curve (% viability x log10 dose units); higher = less sensitive; details: RPMI 5 mM glucose + 10% dialyzed FBS; 48 h
This listing pairs compounds with measured AUC of viability dose-response curve.
Field format: numeric only.

Sample records with AUC of viability dose-response curve:
C[C@]12C[C@H](O)[C@H]3[C@@H](CC\C4=C\C(=O)\C=C/[C@]34C)[C@@H]1CC[C@]2(O)C(=O)CO | 349
C/C=C(/C)C(=O)O[C@H]1C(C)=C2[C@H]([C@@H]1OC(=O)CCCCCCC)[C@@](C)(OC(C)=O)C[C@H](OC(=O)CCC)[C@@]1(O)[C@H]2OC(=O)[C@@]1(C)O | 257
CCC[C@H](NC(=O)/C(C#N)=C/c1cccc(Br)n1)c1ccccc1 | 444
CC(=O)O[C@H]1C(=O)[C@]2(C)[C@@H](O)C[C@H]3OC[C@@]3(OC(C)=O)C2[C@H](OC(=O)C4=CC=CC=C4)[C@]5(O)C[C@H](OC(=O)[C@H](O)[C@@H](NC(=O)C6=CC=CC=C6)C7=CC=CC=C7)\C(=C1/C5(C)C)C (stereo partly specified) | 195
COc1ccc(C[C@@H](C)[C@@H](C)Cc2ccc(OC)c(OC)c2)cc1OC | 354

Please find the next compound below.
Measured AUC of viability dose-response curve, `CC(=O)Nc1ccc(OC[C@](C)(O)C(=O)Nc2ccc([N+](=O)[O-])c(C(F)(F)F)c2)cc1` : 383

====

tested on: P12-Ichikawa; assay: cell viability relative to DMSO control; higher = less cytotoxic; details: HPLM + 10% dialyzed FBS; 48 h; 0.000781 µM
Outcome Measure: cell viability (%)
Give the value, in units of %, as a plain number.

Sample records with cell viability:
CC(C)[C@@H](N(CCCN)C(=O)C1=CC=C(C)C=C1)C/2=N/C3=CC(=CC=C3C(=O)N2CC4=CC=CC=C4)Cl | 97.6
CC1(C)CCC[C@]2(C)[C@H]3CC(=O)O[C@]3(C)CC[C@@H]12 | 118

Measured cell viability, CNC1CCC(N(Cc2cccc(-c3ccncc3)c2)C(=O)c2sc3ccccc3c2Cl)CC1 (configuration not stated) : 96.9

Measured cell viability, COC1CCC(CC1)N(C(=O)C2CCC(C)CC2)C3=C(SC(=C3)\C4=C\CCCC4)C(O)=O (configuration not stated) : 118

Measured cell viability, `CCc1cncnc1N1CCN(Cc2nc3cc(C(F)(F)F)ccc3[nH]2)CC1` : 103
